Experiment: Pharmacokinetics in mice (plasma, brain, CSF)
Type: in vivo
Details: C57BL/6N ('9087), C57BL/6 (PS75), mouse, plasma, iv, I.V. 10 mg/kg, read-out: T ½ Plasma (converted)
Protocol: Pharmacokinetics. Pharmacokinetic experiments were performed by Bienta (Enamine Biology Services) in accordance with Enamine pharmacokinetic study protocols and Institutional Animal Care and Use Guidelines (protocol number 1-2/2020). […] Plasma samples (40 μL) were mixed with 200 μL of internal standard (IS) solution. […] Solutions of internal standards were used to quantify compounds in the plasma samples. […]
Structures can show the parent of a compound that is named as a salt.

Compound | half-life (h)
Clc1ccc2cccc(Nc3ccncc3)c2c1 [PS75, TFA] | 1.64

---

biological target: human α2AAR (Homo sapiens (Human)); assay: β-arrestin-2 recruitment, BRET biosensor assay in HEK293T cells; details: HEK-293T, read-out: β-arrestin-2 Emax
Property: Emax; scope: individual compounds
Parameter measured: Emax (%)

Compound | Result modifier | Value observed
C1=C(c2ccc3c(c2)CC3)CNCC1 | < | 5
Clc1cccc(Cl)c1N=C1NCCN1 [CLON, clonidine, reference compound] | = | 41
Cc1cccc([C@H](C)c2cnc[nH]2)c1C [DEX, dexmedetomidine, reference compound] | = | 60
Cc1cc2[nH]ncc2cc1-c1ccc(N)nc1 | = | 8

---

test: Pharmacokinetics in mice (plasma, brain, CSF); format: in vivo; details: I.P. 10 mg/kg
Structures can show the parent of a compound that is named as a salt.
Parameter measured: AUC CSF (ng·min/mL)

Molecule | Value observed
C1=C(c2ccc3c(c2)CC3)CNCC1 | 18400
Fc1cccc2c(Nc3ccncc3)cccc12 | 12000
c1ccc2c(Nc3ccncc3)cncc2c1 | 154000
Clc1ccc2cccc(Nc3ccncc3)c2c1 [PS75, TFA] | 7790

---

assay: Pharmacokinetics in mice (plasma, brain, CSF); type: in vivo; settings: C57BL/6N ('9087), C57BL/6 (PS75), mouse, plasma, po, P.O. 30 mg/kg, read-out: T ½ Plasma (converted)
Counter-ions that a name gives are not always drawn.

Compound | half-life [h]
Clc1ccc2cccc(Nc3ccncc3)c2c1 [PS75, TFA] | 3.17

---

assay: Pharmacokinetics in mice (plasma, brain, CSF); format: in vivo; settings: mouse, plasma, ip, I.P. 10 mg/kg
Counter-ions that a name gives are not always drawn.
Parameter measured: Cmax

Compound | Value observed
Fc1cccc2c(Nc3ccncc3)cccc12 | 694 ng/mL
Clc1ccc2cccc(Nc3ccncc3)c2c1 [PS75, TFA] | 679 ng/mL
Cc1cc2[nH]ncc2cc1-c1ccc(N)nc1 | 2710 ng/mL
C1=C(c2ccc3c(c2)CC3)CNCC1 | 620 ng/mL
c1ccc2c(Nc3ccncc3)cncc2c1 | 1440 ng/mL

---

molecular target: human α2AAR (Homo sapiens (Human), UniProt P08913); test: Gαi G protein activation, BRET biosensor assay in HEK293T cells; details: Gαi EC50, BRET biosensor, HEK293T, human α2AAR
Sequence (P08913 whole entry): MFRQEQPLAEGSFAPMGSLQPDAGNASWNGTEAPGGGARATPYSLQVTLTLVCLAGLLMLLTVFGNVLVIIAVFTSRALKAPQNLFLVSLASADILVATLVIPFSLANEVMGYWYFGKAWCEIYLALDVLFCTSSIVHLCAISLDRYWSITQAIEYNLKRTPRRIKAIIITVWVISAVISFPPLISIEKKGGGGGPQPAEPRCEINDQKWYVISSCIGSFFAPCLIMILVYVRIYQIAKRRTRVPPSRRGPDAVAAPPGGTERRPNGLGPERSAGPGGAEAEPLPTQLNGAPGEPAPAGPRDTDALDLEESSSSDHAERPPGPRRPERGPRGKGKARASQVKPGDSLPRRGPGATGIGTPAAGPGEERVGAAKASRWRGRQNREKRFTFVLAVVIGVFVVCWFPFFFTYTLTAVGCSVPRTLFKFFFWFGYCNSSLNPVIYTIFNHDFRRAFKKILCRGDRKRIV
pEC50: −log10 of the molar value. Where a name gives a salt, the structure may show the parent alone.
Parameter measured: pEC50

Compound | Value observed
Fc1cccc2c(Nc3ccncc3)cccc12 [Compound 7075] | 8.39
Clc1ccc2cccc(Nc3ccncc3)c2c1 [PS75, TFA] | 8.32
C1=C(c2ccc3c(c2)CC3)CNCC1 [Compound 4622] | 8.01
Cc1cc2[nH]ncc2cc1-c1ccc(N)nc1 [Compound 2998] | 7.14
